Measured values drawn from patent US6835382B2 for this set.

Exercise: for every item that follows, state its recorded Relative Release (fraction of positive control o.d.).
Molecular target: soluble HLA-DR1 (HLA-DR alpha truncated after Asn192 with a C-terminal nine amino acid HA epitope tail; HLA-DR1 beta truncated after Lys198), made in Baculovirus-infected insect cells (human)
Test: release ELISA as Table 36 (biotin-hMBP(90-102) left on tethered HLA-DR1); AE peptide 1 uM, with unlabeled hMBP(90-102) 250 uM
Non-standard residues stand in square brackets, D forms with d. Hyp = O=C(O)[C@@H]1C[C@@H](O)CN1

[[record]]
binder = "Ac-YRMKL[Hyp]KSAK-NH2 (SMILES CSCC[C@H](NC(=O)[C@H](CCCNC(=N)N)NC(=O)[C@H](Cc1ccc(O)cc1)NC(C)=O)C(=O)N[C@@H](CCCCN)C(=O)N[C@@H](CC(C)C)C(=O)N1C[C@H](O)C[C@H]1C(=O)N[C@@H](CCCCN)C(=O)N[C@@H](CO)C(=O)N[C@@H](C)C(=O)N[C@@H](CCCCN)C(N)=O) [AE143]"
measured_value = 0.35


Please state, for each entry, its recorded Relative Release (fraction of positive control o.d.).
1. YRMKLPKSAK [AE108]
2. LRMKLPK (head-to-tail cyclization: the amino terminal amino group is coupled through an amide linkage to the carboxyl terminal group) [AE381]
3. Ac-LRLKLPK-NH2 [AE206]
4. Ac-LRMKYPK-NH2 [AE235]

0
0.09
0.03
0.48
